Test system: DOHH2 cells
Test: DOHH2 Long Term Phenotypic Assay (7 days, Cell Titer-Glo viability)
Assay type: cell-based
Details: Homo sapiens, DOHH-2, 168 h, Cell Titer-Glo 2.0
Experimental: DOHH2 cells were kindly provided by Michael Green (MDACC). […] Viability was assessed by a 30 μL addition of Cell Titer-Glo 2.0 (Promega, catalog #G9243). […] Luminescence was measured using a PerkinElmer Envision™ plate reader. IC50 values were calculated using a four-parameter logistic curve fit using Genedata Screener software.
reported.property: IC50 (nM)
The reply should be a number in nM, with the unit left off.

Check out these entries, answers already filled in.
{"molecule": "CNCCN(C)Cc1nn2c(c1C1CCC(COC)(COC)CC1)CN(C(=O)C1(C)COC1)CC2", "reported.property": "IC50", "result": 160}
{"molecule": "CNCCN(C)Cc1nn2c(c1C1CCC(COC)(COC)CC1)CN(C(=O)C1CCC(C)(C)O1)CC2 (stereo not shown)", "reported.property": "IC50", "result": 303}
{"molecule": "CNCCN(C)Cc1nn2c(c1C1CCC(COC)(COC)CC1)CN(C(=O)C1CCC(OC)CC1)CC2 (stereo not shown)", "reported.property": "IC50", "result": 284}

Data request: // IC50 lookup, key: CNCCN(C)Cc1nn2c(c1C1CCC(COC)(COC)CC1)CN(C(=O)C1(C(F)(F)F)CC1)CC2
Data returned: 142

Data request: What do you have for CNCCN(C)Cc1nn2c(c1C1CCC(COC)(COC)CC1)CN(C(=O)C1CC(F)(F)C1)CC2 ?
Data returned: 87

Data request: What do you have for CCC(C)C(=O)N1CCn2nc(CN(C)CCNC)c(C3CCC(COC)(COC)CC3)c2C1 (stereo not shown) ?
Data returned: 134

Data request: What do you have for COCC1(COC)CCC(c2c(CN(C)CCN)nn3c2CN(C(=O)C24CC(F)(C2)C4)CC3)CC1 ?
Data returned: 175

Data request: What do you have for CNCCN(C)Cc1nn2c(c1C1CCC(COC)(COC)CC1)CN(C(=O)C1CCOC1(C)C)CC2 (stereo not shown) ?
Data returned: 575

Data request: What do you have for CNCCN(C)Cc1nn2c(c1C1CCC(COC)(COC)CC1)CN(C(=O)C1CCCCC1)CC2 ?
Data returned: 75
